# target-entity: PKR(wt) (Homo sapiens)
# Sequence (P30613 whole entry): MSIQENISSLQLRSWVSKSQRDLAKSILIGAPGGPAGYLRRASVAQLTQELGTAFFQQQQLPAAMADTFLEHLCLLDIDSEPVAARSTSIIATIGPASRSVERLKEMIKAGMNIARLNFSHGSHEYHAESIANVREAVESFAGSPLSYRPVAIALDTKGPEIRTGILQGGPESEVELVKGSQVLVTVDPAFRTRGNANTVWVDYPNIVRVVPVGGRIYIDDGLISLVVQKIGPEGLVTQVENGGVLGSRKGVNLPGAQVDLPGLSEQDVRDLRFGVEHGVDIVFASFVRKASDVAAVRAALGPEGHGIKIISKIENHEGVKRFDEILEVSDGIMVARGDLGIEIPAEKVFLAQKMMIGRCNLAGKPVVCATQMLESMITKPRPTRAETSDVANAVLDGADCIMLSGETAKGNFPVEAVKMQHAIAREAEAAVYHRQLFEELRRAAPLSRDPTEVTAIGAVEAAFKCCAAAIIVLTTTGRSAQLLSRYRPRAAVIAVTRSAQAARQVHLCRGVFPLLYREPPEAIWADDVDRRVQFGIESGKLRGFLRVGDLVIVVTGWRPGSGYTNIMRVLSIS
# protocol-notes: Luminescence Assay Protocol (Kinase Glo Plus), PKR(Wt/without FBP)
# Type: biochemical
# run-parameters: without FBP, gmean, read-out: G - AC50 LUM KGP woFBP AC50 μM gmean
assay-readout: AC50

• O=C(C1CCCOC1)N1CC2=C(C1)CN(S(=O)(=O)c1ccccn1)C2 (single isomer, unassigned) [Example 44] = 1 to 40 µM

Query string: Which AC50 value is on record for O=C(C1CCCOC1)N1CC2=C(C1)CN(S(=O)(=O)c1cnc3c(c1)OCCO3)C2 (single isomer, unassigned) [Example 6] ?
Result string: 1 to 40 µM

Query string: Which AC50 value is on record for COCC1(C(=O)N2CC3=C(C2)CN(S(=O)(=O)c2ccc4occc4c2)C3)CC1 [Example 17] ?
Result string: 0.1 to 1 µM

Data provenance: patent US11649242B2
